# Tested on: human platelets
# ASSAY_EXPLANATION: platelet aggregation in vitro, human platelets
# Format: cell-based
# CONDITION_LABEL: agonist Sulprostone (100 nM) and collagen (0.125 ug.mL), Serum % 50, read-out: IC50 (nM) for Test Compounds
# Protocol: The compounds of the invention were assayed for their effects on platelet aggregation in vitro. In experiments with human platelets, whole blood was extracted from overnight-fasted human donors. Each experiment was performed with blood from single individual. […] Platelet aggregation was determined by light absorbance using a platelet aggregometer with constant magnetic stirring (Model 490, Chronolog Cop., Havertown, Pa., USA), using a volume of 500 μl per cuvette. […]
ENDPOINT_NAME: IC50 (nM)
Answers are plain numbers, in nM.

Give recorded IC50 with human platelets for the following molecule: CC12CCCC(C=CC(=O)NS(=O)(=O)c3cc(Cl)c(Cl)s3)=C1N(Cc1ccc3ccccc3c1)C(=O)C2 (stereo not shown) [Compound P253] 15.9

###

# Test system: rat platelets
# ASSAY_EXPLANATION: platelet aggregation in vitro, rat platelets
# Type: cell-based
# CONDITION_LABEL: agonist PGE2 (940 nM) and collagen (2.0 ug.mL), Serum % 20, read-out: IC50 (nM) for Test Compounds
ENDPOINT_NAME: IC50 (nM)
Give bare numbers, in nM.

For Cc1cn(Cc2ccc(Cl)cc2Cl)c2c(C=CC(=O)NS(=O)(=O)c3cc(Cl)c(Cl)s3)cc(F)cc12 [Compound P067] , what is its reported IC50? 304

###

# Test system: rat platelets
# ASSAY_EXPLANATION: platelet aggregation in vitro, rat platelets
# Type: cell-based
# CONDITION_LABEL: agonist Sulprostone (100 nM) and collagen (2.0 ug.mL), Serum % 20, read-out: IC50 (nM) for Test Compounds
ENDPOINT_NAME: IC50 (nM)
Give bare numbers, in nM.

For Cc1cn(Cc2ccc(Cl)cc2Cl)c2c(C=CC(=O)NS(=O)(=O)c3cc(Cl)c(Cl)s3)cc(F)cc12 [Compound P067] , what is its reported IC50? 87.8

###

Would you mind telling me the reported IC50 of each entry?
# TEST_TARGET: prostanoid EP3 receptors (Homo sapiens, UniProt P43115)
# ASSAY_EXPLANATION: binding on prostanoid EP3 receptors (method of Abramovitz et al.)
# CONDITION_LABEL: read-out: Activity (EP3 receptor binding, IC50 class)

Cn1cc(C=CC(=O)NS(=O)(=O)c2ccc(Cl)cc2Cl)c2c(Oc3ccc4ccccc4c3)cccc21 ... < 1000 nM
Cc1cn(CCC(=O)NS(=O)(=O)c2cc(F)c(F)cc2F)c2c(Oc3ccc(Cl)cc3Cl)cc(F)cc12 ... < 1000 nM
CC12CCCC(C=CC(=O)NS(=O)(=O)c3cc(Cl)c(Cl)s3)=C1N(Cc1ccc(Cl)cc1Cl)C(=O)C2 (stereo not shown) ... < 1000 nM

Each molecule below has a recorded value; state its IC50.
1. O=C(COc1cccc2oc(=O)n(Cc3ccc4ccccc4c3)c12)NS(=O)(=O)C(F)(F)F
2. COc1cc(CN2C(=O)COc3cccc(OCC(=O)NS(=O)(=O)c4cccs4)c32)cc(OC)c1
3. COc1cccc(CN2C(=O)CC3(C)CCCC(C=CC(=O)NS(=O)(=O)c4ccc(F)c(F)c4)=C23)c1 (stereo not shown)

1. 1000 to 10000 nM
2. 1000 to 10000 nM
3. < 1000 nM

For O=C(C=Cc1cccc2c1C(Nc1ccc3ccccc3c1)C(=O)N2)NS(=O)(=O)c1cc(Cl)c(Cl)s1 (stereo not shown) , what is its reported IC50? < 1000 nM

###

# Test system: human platelets
# ASSAY_EXPLANATION: platelet aggregation in vitro, human platelets
# Format: cell-based
# CONDITION_LABEL: Homo sapiens, agonist PGE2 (940 nM) and collagen (0.125 ug.mL), Serum % 50, read-out: IC50 (nM) for Test Compounds
ENDPOINT_NAME: IC50 (nM)
Answers are plain numbers, in nM.

For Cc1cn(Cc2ccc(Cl)cc2Cl)c2c(C=CC(=O)NS(=O)(=O)c3cc(Cl)c(Cl)s3)cc(F)cc12 , what is its reported IC50? 5.15

###

# TEST_TARGET: prostanoid EP3 receptors (Homo sapiens, UniProt P43115)
# Sequence (P43115 1-390): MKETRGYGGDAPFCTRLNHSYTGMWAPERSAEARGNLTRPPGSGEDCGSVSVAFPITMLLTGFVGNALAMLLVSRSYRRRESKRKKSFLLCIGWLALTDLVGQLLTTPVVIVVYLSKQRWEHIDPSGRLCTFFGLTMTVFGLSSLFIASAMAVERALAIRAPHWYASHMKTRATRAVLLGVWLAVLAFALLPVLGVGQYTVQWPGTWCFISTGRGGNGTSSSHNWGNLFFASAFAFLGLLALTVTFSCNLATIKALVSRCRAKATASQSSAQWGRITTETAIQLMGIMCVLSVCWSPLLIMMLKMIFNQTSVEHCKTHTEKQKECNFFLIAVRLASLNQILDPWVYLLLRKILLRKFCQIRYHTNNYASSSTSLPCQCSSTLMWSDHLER
# ASSAY_EXPLANATION: binding on prostanoid EP3 receptors (method of Abramovitz et al.)
# CONDITION_LABEL: read-out: Activity (EP3 receptor binding, IC50 class)
ENDPOINT_NAME: IC50

# annotated cases, reported IC50 shown
Cn1nnnc1S(=O)(=O)c1c[nH]c2cccc(OCC(=O)NS(=O)(=O)c3cc(Cl)c(Cl)s3)c12 [Compound P239] ... < 1 µM
O=C(C=Cc1cccc2c1N(Cc1ccc3ccccc3c1)C(=O)C21OCCO1)NS(=O)(=O)c1cccs1 [Compound P083] ... < 1 µM
CC12CCCC(C=CC(=O)NS(=O)(=O)c3ccc(Cl)s3)=C1N(Cc1ccc(Cl)cc1Cl)C(=O)C2 (stereo not shown) [Compound P279] ... < 1 µM
Cc1cn(Cc2cn3ccccc3n2)c2c(C=CC(=O)NS(=O)(=O)c3ccccc3F)cc(F)cc12 [Compound P409] ... < 1 µM
Cc1cn(Cc2ccccc2)c2c(/C=C/C(=O)NS(=O)(=O)c3cc(Cl)c(Cl)s3)cccc12 [Compound P122] ... < 1 µM
Cc1cn(Cc2cn3ccccc3n2)c2c(C=CC(=O)NS(=O)(=O)c3cc(F)ccc3F)cc(F)cc12 [Compound P407] ... < 1 µM

Turning to the following compound.
For O=C(CNc1cccc2c1N(Cc1ccc3ccccc3c1)C(=O)CO2)NS(=O)(=O)c1cccs1 [Compound P049] , what is its reported IC50? 1 to 10 µM

###

# Tested on: human platelets
# ASSAY_EXPLANATION: platelet aggregation in vitro, human platelets
# Type: cell-based
# CONDITION_LABEL: Homo sapiens, agonist Sulprostone (100 nM) and collagen (0.125 ug.mL), Serum % 50, read-out: IC50 (nM) for Test Compounds
ENDPOINT_NAME: IC50 (nM)
Give bare numbers, in nM.

Give recorded IC50 with human platelets for the following compound: Cc1cn(Cc2ccc(Cl)cc2Cl)c2c(C=CC(=O)NS(=O)(=O)c3cc(Cl)c(Cl)s3)cc(F)cc12 9.21

###

# TEST_TARGET: prostanoid EP3 receptors (Homo sapiens, UniProt P43115)
# Sequence (P43115 1-390): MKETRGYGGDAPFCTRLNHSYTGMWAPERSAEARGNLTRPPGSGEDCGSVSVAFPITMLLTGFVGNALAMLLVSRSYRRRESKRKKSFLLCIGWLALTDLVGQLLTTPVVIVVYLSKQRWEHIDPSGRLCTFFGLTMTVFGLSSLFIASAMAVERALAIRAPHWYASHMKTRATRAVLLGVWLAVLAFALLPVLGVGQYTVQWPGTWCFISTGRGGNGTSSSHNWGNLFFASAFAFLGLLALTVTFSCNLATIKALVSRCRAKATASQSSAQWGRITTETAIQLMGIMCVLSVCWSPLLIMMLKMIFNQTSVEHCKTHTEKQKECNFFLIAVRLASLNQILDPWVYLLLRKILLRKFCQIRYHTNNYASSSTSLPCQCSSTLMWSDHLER
# ASSAY_EXPLANATION: binding on prostanoid EP3 receptors (method of Abramovitz et al.)
# CONDITION_LABEL: read-out: Activity (EP3 receptor binding, IC50 class)
pIC50: −log10 of the molar value.
Would you mind telling me the reported pIC50 of each entry?

Each compound below has a recorded value; state its pIC50.
1. O=C(COc1cccc2[nH]cc(S(=O)(=O)c3nc[nH]n3)c12)NS(=O)(=O)c1cc(Cl)c(Cl)s1
2. Cn1cc(C=CC(=O)NS(=O)(=O)c2cc(F)c(F)cc2F)c2c(Oc3ccc(Cl)cc3)cccc21
3. Cc1nc2cccc(OCC(=O)NS(=O)(=O)c3cccs3)c2n1Cc1ccc2ccccc2c1
4. Cc1cn(Cc2ccc(OC(F)F)cc2)c2c(/C=C/C(=O)NS(=O)(=O)c3cc(Cl)c(Cl)s3)cccc12
5. O=C(CN1CCCc2cccc(OCc3ccc4ccccc4c3)c21)NS(=O)(=O)c1cccs1

1: > 6.00; 2: > 6.00; 3: 5.00 to 6.00; 4: > 6.00; 5: 5.00 to 6.00

Each compound below has a recorded value; state its pIC50.
1. Cn1cc(C=CC(=O)NS(=O)(=O)c2ccc(F)cc2F)c2c(Oc3ccc4ccccc4c3)cccc21
2. O=C(COc1cccc2oc(=O)n(Cc3ccc(Cl)cc3Cl)c12)NS(=O)(=O)c1cccs1

1: > 6.00; 2: > 6.00
